- assaySystem: Neu5Ac(a2-6)Gal(b1-4)GlcNAc(b1-3)Gal(b1-3)GlcNAc
- methodDescription: glycan array binding signal (z-score within array); higher = stronger binding
- settings: glycan notation: IUPAC condensed, linker removed
This is one part of a sample in which the strongest signals are shown more often than they occur.
Classify as follows. Reported glycan array binding signal (z-score) greater than or equal to -0.3: true (1). Reported glycan array binding signal (z-score) below: false (0).

Textbook exercise: given the entry ERGIC1-EDTA (Homo sapiens), Q969X5 (protein) MKFLVNVALVFMVVYISYIYAAAHMHHHHHHDYDIPTTENLYFQGSEVVNELYVDDPDKDSGGKIDVSLNISLPNLHCELVGLDIQDEMGRHEVGHIDNSMKIPLNNGAGCRFEGQFSINKVPGNFHVSTHSATAQPQNPDMTHVIHKLSFGDTLQVQNIHGAFNALGGADRLTSNPLASHDYILKIVPTVYEDKSGKQRYSYQYTVANKEYVAYSHTGRIIPAIWFRYDLSPITVKYTE , state whether its glycan array binding signal (z-score) is greater than or equal to -0.3.
true (1)

Textbook exercise: given the entry Gal 1 (Canis lupus) (protein) MACGLVASNLSLKPGQCLRVQCEVVPEAKSFVLNLGKDGDNLCLHFNPRFEAHGDVNTIVCNSKDGGAWGEELRESAFPFQPGTVTEVCISFDQADLTIKLPDGYTFKFPNRLNLEAISYLAADGDMKIKCLAFD , state whether its glycan array binding signal (z-score) is greater than or equal to -0.3.
false (0)

Textbook exercise: given the entry Gal 10 (Homo sapiens), Q05315 (protein) MSLLPVPYTEAASLSTGSTVTIKGRPLVCFLNEPYLQVDFHTEMKEESDIVFHFQVCFGRRVVMNSREYGAWKQQVESKNMPFQDGQEFELSISVLPDKYQVMVNGQSSYTFDHRIKPEAVKMVQVWRDISLTKFNVSYLKR , state whether its glycan array binding signal (z-score) is greater than or equal to -0.3.
false (0)

Textbook exercise: given the entry LlpA (Arthrobacter sp) (protein) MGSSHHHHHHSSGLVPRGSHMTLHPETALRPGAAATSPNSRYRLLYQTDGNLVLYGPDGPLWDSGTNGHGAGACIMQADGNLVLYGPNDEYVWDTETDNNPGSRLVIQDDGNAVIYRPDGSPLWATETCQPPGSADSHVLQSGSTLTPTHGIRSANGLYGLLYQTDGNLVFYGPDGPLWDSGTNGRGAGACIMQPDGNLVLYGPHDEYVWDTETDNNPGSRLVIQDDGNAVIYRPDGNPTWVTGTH , state whether its glycan array binding signal (z-score) is greater than or equal to -0.3.
false (0)

Textbook exercise: given the entry EULS2 M4 (Oryza sativa) (protein) MVYCRANPNYAMTARNGAVVLAPANPKDEYQHWIKDMRWSTSIKDEEGYPAFALVNKATGQAIKHSLGQSHPVRLVPYNPEVMDESVLWTESRDVGNGFRCIRMVNNIYLNFDAFHGDKYHGGVRDGTDIVLWKWCEGDSLRWKIQPYYILEQKLISEEDLNSAVDHHHHHH , state whether its glycan array binding signal (z-score) is greater than or equal to -0.3.
true (1)
